Entry source: ChEMBL document CHEMBL5724806

assay: The drug is tested on Enterococcus faecalis strain: ATCC29212 for biotransformation under anaerobic condition. The drug concentrations were measured over 6 timepoints collected between 0 and 12 hours of incubation by liquid-chromatography-coupled mass spectrometry (LC–MS); assay type: ADME; parameters: dose 5 uM, timepoint 0, 1.5, 3, 6, 9, 12 hours; conditions: 5 µM
Endpoint name: Bacterial Biotransformation

These recorded examples may help you get a feel for the data.
INSERT INTO measurements (compound, value) VALUES
  ('COc1ccc([C@@H]2Sc3ccccc3N(CCN(C)C)C(=O)[C@@H]2OC(C)=O)cc1 [DILTIAZEM]', 'Compound NOT metabolized'),
  ('C[C@]12CCC(=O)C=C1CC[C@@H]1[C@@H]2[C@@H](O)C[C@@]2(C)[C@H]1CC[C@]2(O)C(=O)CO [HYDROCORTISONE]', 'Compound NOT metabolized'),
  ('C=CC[C@@H]1/C=C(\C)C[C@H](C)C[C@H](OC)[C@H]2O[C@@](O)(C(=O)C(=O)N3CCCC[C@H]3C(=O)O[C@H](/C(C)=C/[C@@H]3CC[C@@H](O)[C@H](OC)C3)[C@H](C)[C@@H](O)CC1=O)[C@H](C)C[C@@H]2OC.O [TACROLIMUS]', 'Compound metabolized'),
  ('CO[C@H]1C[C@@H]2CC[C@@H](C)[C@@](O)(O2)C(=O)C(=O)N2CCCC[C@H]2C(=O)O[C@H]([C@H](C)C[C@@H]2CC[C@@H](OCCO)[C@H](OC)C2)CC(=O)[C@H](C)/C=C(\C)[C@@H](O)[C@@H](OC)C(=O)[C@H](C)C[C@H](C)/C=C/C=C/C=C/1C [EVEROLIMUS]', 'Compound metabolized'),
  ('C[C@H]1C[C@H]2[C@@H]3CCC4=CC(=O)C=C[C@]4(C)[C@@]3(F)[C@@H](O)C[C@]2(C)[C@@]1(O)C(=O)CO [BETAMETHASONE]', 'Compound NOT metabolized'),
  ('C[C@@H](NCCCc1cccc(C(F)(F)F)c1)c1cccc2ccccc12', 'Compound NOT metabolized');

Then there is this compound:
The compound identified as COc1c(C)c2c(c(O)c1C/C=C(\C)CCC(=O)O)C(=O)OC2 [MYCOPHENOLIC ACID] registered its Bacterial Biotransformation at Compound NOT metabolized
